Measured values drawn from patent EP4610269A1 for this set.

- study.system: human uPAR (uPAR-Fc) (Homo sapiens, UniProt Q03405)
- Construct: comprising amino acids Leu23-Arg303 according to UniProt entry Q03405.1; purchased R&D Systems 10378-UK-100
- Sequence (Q03405 23-303): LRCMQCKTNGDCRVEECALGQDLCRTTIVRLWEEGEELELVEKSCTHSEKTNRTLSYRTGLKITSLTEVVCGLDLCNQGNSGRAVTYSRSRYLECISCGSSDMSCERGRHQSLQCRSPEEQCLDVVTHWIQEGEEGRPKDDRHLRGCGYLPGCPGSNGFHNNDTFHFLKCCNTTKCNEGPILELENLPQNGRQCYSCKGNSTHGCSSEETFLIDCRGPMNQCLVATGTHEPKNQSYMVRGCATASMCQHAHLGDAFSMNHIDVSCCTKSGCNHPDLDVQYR
- experiment.summary: Surface plasmon resonance (SPR) assay, single cycle kinetics
- Type: binding
- run.parameters: pKD category for uPAR SPR activity assay; uPAR-Fc on Protein A-Chip, 25°C; read-out: pKD CAT (converted)
- Procedure: Surface plasmon resonance (SPR) is an optical technique used to measure molecular interactions in real time. SPR occur when plane-polarized light hits a metal film under total internal reflection conditions. […] In an SPR experiment, one molecule (i.e. uPAR) is immobilized on a sensor chip and binding to a second molecule (i.e. test compounds) is measured under flow. […] This response is measured in resonance units (RU). […]
Where a SMILES comes first, the peptide text is derived from it. Bridges are numbered along the chain shown (N, C = ends). [ ]: non-standard residue; d: D form. The star is where a group is joined. DOTA = O=C(O)CN1CCN(CC(=O)O)CCN(CC(=O)*)CCN(CC(=O)O)CC1; Pro(trans-4-F) = O=C(O)[C@@H]1C[C@@H](F)CN1; Phe(4-Cl) = N[C@@H](Cc1ccc(Cl)cc1)C(=O)O; Pro(cis-4-F) = O=C(O)[C@@H]1C[C@H](F)CN1; Dopa = N[C@@H](Cc1ccc(O)c(O)c1)C(=O)O; Hyp = O=C(O)[C@@H]1C[C@@H](O)CN1; 3Pal = N[C@@H](Cc1cccnc1)C(=O)O; Pentanoyl(4-Me) = CC(C)CCC(=O)*; Cit = NC(=O)NCCC[C@H](N)C(=O)O; Butoxycarbonyl = CCCCOC(=O)*; NMeK = CN[C@@H](CCCCN)C(=O)O; Orn = NCCC[C@H](N)C(=O)O; Nva = CCC[C@H](N)C(=O)O; Pentanoyl = CCCCC(=O)*
readout.kind: Kd

Quick check: Kd of CC[C@H](C)[C@@H]1NC(=O)[C@H]2CCCN2C(=O)[C@@H]2CCCN2C(=O)[C@H](Cc2ccccc2)NC(=O)[C@H](Cc2ccc(O)cc2)NC(=O)[C@H](CCC(N)=O)NC(=O)[C@H](CCCNC(N)=O)NC(=O)[C@@H](NC(=O)CCC(C)C)CSSC[C@@H](C(N)=O)NC(=O)[C@H](CC(C)C)NC1=O [UPAR-305] ({Pentanoyl(4-Me)}-C[Cit]QYFP[dP]ILC-NH2; disulfide 1-10) ? > 100 nM

Quick check: Kd of CCCCC(=O)N[C@H]1CSSC[C@@H](C(N)=O)NC(=O)[C@H](CCC)NC(=O)[C@H]([C@@H](C)CC)NC(=O)[C@H](CCCCN)N(C)C(=O)[C@@H]2CCCN2C(=O)[C@H](Cc2ccccc2)NC(=O)[C@H](Cc2ccc(O)cc2)NC(=O)[C@H](CCCCNC(=O)CN2CCN(CC(=O)O)CCN(CC(=O)O)CCN(CC(=O)O)CC2)NC(=O)[C@H](CCCNC(N)=O)NC1=O [UPAR-173] (Pentanoyl-C[Cit]K(DOTA)YFP[NMeK]I[Nva]C-NH2; disulfide 1-10) ? > 100 nM

Quick check: Kd of CCCCC(=O)N[C@H]1CSSC[C@@H](C(N)=O)NC(=O)[C@H](CCC)NC(=O)[C@H]([C@@H](C)CC)NC(=O)[C@@H]2C[C@@H](F)CN2C(=O)[C@@H]2CCCN2C(=O)[C@H](Cc2cccnc2)NC(=O)[C@H](Cc2ccc(O)cc2)NC(=O)[C@H](CCCCNC(=O)CN2CCN(CC(=O)O)CCN(CC(=O)O)CCN(CC(=O)O)CC2)NC(=O)[C@H](CCCNC(N)=O)NC1=O [UPAR-207] (Pentanoyl-C[Cit]K(DOTA)Y[3Pal]P[Pro(trans-4-F)]I[Nva]C-NH2; disulfide 1-10) ? 1.58 to 10 nM

Quick check: Kd of CCCCOC(=O)N[C@H]1CSSC[C@@H](C(N)=O)NC(=O)[C@H](CCC)NC(=O)[C@H]([C@@H](C)CC)NC(=O)[C@@H]2C[C@@H](O)CN2C(=O)[C@@H]2C[C@H](F)CN2C(=O)[C@H](Cc2ccc(Cl)cc2)NC(=O)[C@H](Cc2ccc(O)cc2)NC(=O)[C@H](CCCCNC(=O)CN2CCN(CC(=O)O)CCN(CC(=O)O)CCN(CC(=O)O)CC2)NC(=O)[C@H](CCCNC(N)=O)NC1=O [UPAR-304] (Butoxycarbonyl-C[Cit]K(DOTA)Y[Phe(4-Cl)][Pro(cis-4-F)][Hyp]I[Nva]C-NH2; disulfide 1-10) ? < 1.58 nM

Quick check: Kd of CCCCOC(=O)N[C@H]1CSSC[C@@H](C(N)=O)NC(=O)[C@H](CCC)NC(=O)[C@H]([C@@H](C)CC)NC(=O)[C@@H]2C[C@@H](O)CN2C(=O)[C@@H]2C[C@H](F)CN2C(=O)[C@H](Cc2ccccc2)NC(=O)[C@H](Cc2ccc(O)c(O)c2)NC(=O)[C@H](CCCNC(=O)CN2CCN(CC(=O)O)CCN(CC(=O)O)CCN(CC(=O)O)CC2)NC(=O)[C@H]([C@@H](C)O)NC1=O [UPAR-280] (Butoxycarbonyl-CT[Orn](DOTA)[Dopa]F[Pro(cis-4-F)][Hyp]I[Nva]C-NH2; disulfide 1-10) ? < 1.58 nM
